# study target: T1, Anti-PSMA Fab (SEQ ID NOs: 19, 20)
# T1 construct: Biotinylated PSMA Fab captured on neutravidin coated plates in the phage ELISA; also called 006 PSMA Fab
# assay overview: phage binding ELISA; biotinylated PSMA Fab on neutravidin plate, clonal phage, anti-M13-HRP detection
Anti-PSMA Fab (SEQ ID NOs: 19, 20) signal values by entry
assay readout: Anti-PSMA Fab (SEQ ID NOs: 19, 20) signal

| binder | recorded number |
| --- | --- |
| LEKWCTPLWMCVGI (Peptide-180 library clone, tested as clonal phage supernatant) [Phage-2026] | 1.82 |
| ALMWCIPQWMCQDQ (Peptide-180 library clone, tested as clonal phage supernatant) [Phage-2023] | 1.82 |
| VIKLCSPPWMCIGL (Peptide-180 library clone, tested as clonal phage supernatant) [Phage-2020] | 1.82 |
| VQKWCIPAWMCDYV (Peptide-180 library clone, tested as clonal phage supernatant) [Phage-2024] | 1.82 |
| GEKWCIPPWMCITN (Peptide-180 library clone, tested as clonal phage supernatant) [Phage-2012] | 1.84 |
| IVKWCTPPWMCTIY (Peptide-180 library clone, tested as clonal phage supernatant) [Phage-2019] | 1.83 |
| TEIWCIPPWMCDGQ (Peptide-180 library clone, tested as clonal phage supernatant) [Phage-2021] | 1.82 |
| ELKRCTPSWMCEGI (Peptide-180 library clone, tested as clonal phage supernatant) [Phage-2025] | 1.82 |
| LEKWCIPAWMCEVF (Peptide-180 library clone, tested as clonal phage supernatant) [Phage-2013] | 1.84 |
| LDKWCTPSWMCYGM (Peptide-180 library clone, tested as clonal phage supernatant) [Phage-2018] | 1.83 |
| VVQLCSPVWMCEGF (Peptide-180 library clone, tested as clonal phage supernatant) [Phage-2015] | 1.83 |
| PERWCIPVWMCESG (Peptide-180 library clone, tested as clonal phage supernatant) [Phage-2014] | 1.83 |
| PIRLCIPEWMCEMV (Peptide-180 library clone, tested as clonal phage supernatant) [Phage-2016] | 1.83 |
| MVKWCFPEWMCWTD (Peptide-180 library clone, tested as clonal phage supernatant) [Phage-2017] | 1.83 |
| QLNWCIPEWMCQGL (Peptide-180 library clone, tested as clonal phage supernatant) [Phage-2022] | 1.82 |
